target under test: T1, Lys63-linked UB chains (Ub2-7) (UniProt P0CG48 1-76, isopeptide bond between the C-terminus of the distal UB and Lys63 of the proximal UB)
T1 construct: Bought mixture of chain lengths Ub2-7; also called K63-linked UB chains; K63-linked ubiquitin chains
protocol: GST pull-down, immunoblot

{"columns": ["binder", "binding result"],
 "data": [
  ["GST-OTU10 (enzyme, also called OTU10 (GST tag); not shown: GST and His tags from pET42 vector) MVSHEENTSIVEWFLGPHPYTYPPYGIEMIHEDDEVAVAHHHHHHQSGEYYREYEDHRSSDVDNDEIIARTLQDDFLQLEIAESNDYSHQNQQQQHQQEGYTNNYSNNNNGYAWNDQSPAVDYSSEWIGNDNDQDGRSDDSVNVFSCSSPSDTDEYVYSWESDQCDADGEFGRRLNQMVPIPYIPKINGEIPPEEEAVSDHERLRNRLEMFDFTEVKVPGDGNCQFRALADQLYKTADRHKHVRRQIVKQLKSRPDSYQGYVPMDFSDYLRKMSRSGEWGDHVTLQAAADAYRVKIVVLTSFKDTCYIEILPTSQESKGVIFLSFWAEVHYNAIYLNRDTSETELQRKRKWWRFGN", "no binding"],
  ["GST-OTU7a (enzyme, Full-length coding region in pET42, expressed in E. coli; also called OTU7a (GST fusion); not shown: GST and His tags from pET42 vector) MAKTKQQKSKPKKQPHQKQGKDCDLSQFRAQLDALGLKIIQVTADGNCFFRAIADQLEGNEDEHNKYRNMIVLYIVKNREMFEPFIEDDVPFEDYCKTMDDDGTWAGNMELQAASLVTRSNICIHRNMSPRWYIRNFEDTRTRMIHLSYHDGEHYNSVRSKEDACGGPARPVVIEADAKVSAASKQAKATESKSKNKADKCHVNAGAIKVVMSGSCCDNTEKAEQVLLQVNGDVDAAIEFLIADQGMESLTENDTETASASDTINPKHASDSPMENTEQAREELIEEESASGNNSETVQAKCTTQTDDKKIPRNKTCPCGSKKKYKSCCGTATGRSSVKLLVSQTMESKKGRKNLRRGTSNEVEANAPDVGALCI", "no binding"],
  ["GST-OTU4c (enzyme, Full-length coding region in pET42, expressed in E. coli; also called OTU4c (GST tag); not shown: GST and His tags from pET42 vector) MMICYSPITTCSRNAISIKRHLGSRLYGVVAHGSSKFSCYSLLSGLSRRHYTGFRVSVSNRPSSWHDKGLFGFAYTGVIVSLLVCYSSTSQSAYADSSRDKDANNVHHHSSDGKFHNGKRVYTDYSIIGIPGDGRCLFRSVAHGFCLRSGKLAPGEKMQRELADELRTRVADEFIQRRQETEWFVEGDFDTYVRQIRDPHVWGGEPELFMASHVLQMPITVYMKDDKAGGLISIAEYGQEYGKDDPIRVLYHGFGHYDALLLHESKASIPKSKL", "no binding"]
]}
